From: patent US11998595B2

Test system: T cells (patient PBMCs)
Test Method Notes: T-cell proliferation assay (3H-thymidine) of patient PBMC/T cells with hTERT peptides or transfected DC
Type: cell-based, human
Test Context: patient Melanoma P3, GV1001-vaccinated, clinical non-responder, one time point
Attribute Measured: proliferative T-cell response (SI)

{"Query Sequence": "EARPALLTSRLRFIPK (listed as Homo sapiens) [GV1001]", "Reported Value": 1.8}
{"Query Sequence": "AERLTSRVKALFSVL (listed as Homo sapiens) [SEQ ID NO. 9]", "Reported Value": 0.5}
{"Query Sequence": "ALFSVLNYERARRPGLLGASVLGLDDIHRA [SEQ ID NO. 1]", "Reported Value": 0.3}
{"Query Sequence": "RTFVLRVRAQDPPPE (listed as Homo sapiens) [SEQ ID NO. 7]", "Reported Value": 0.7}
{"Query Sequence": "RLTSRVKALFSVLNY (listed as Homo sapiens) [SEQ ID NO. 8]", "Reported Value": 0.6}
